# System: CCRIS mutagenicity, Ames/micronucleus/aberration tests
# ASSAY_DETAILS: CCRIS mutagenicity studies
# CONDITION_SUMMARY: Test System: AMES SALMONELLA TYPHIMURIUM; Strain/Indicator: TA1537; Metabolic Activation: NONE; Method: PREINCUBATION
Activity calls are given as the source filed them. The rule behind the calls is not given here.
Hi there, use one of these labels in your reply, thanks! T for active, F for inactive

Below, 4 compounds whose answers are already recorded.
>>> classification("C=CC[Si](C)(C)C")
"F"
>>> classification("CC1CC(OC(=O)c2ccccc2O)CC(C)(C)C1 (stereo not given)")
"F"
>>> classification("CCCCCCCCCCCCCOC(=O)c1ccccc1C(=O)OCCCCCCCCCCCCC")
"F"
>>> classification("Cc1n[nH]c(=O)[nH]c1=O")
"F"

Q: Test call for this compound, please: C(=C/c1ccccc1)/c1ccccc1
A: F

Q: Test call for this compound, please: O=c1[nH]c(=O)n([C@H]2C[C@H](O)[C@@H](CO)O2)cc1CCCl
A: F

Q: Test call for this compound, please: CCCC(=O)c1cc(O)c(O)cc1O
A: F

Q: Test call for this compound, please: Cc1cc(=O)oc2cc(O)cc(O)c12
A: F

Q: Test call for this compound, please: Cc1oc(=O)oc1COC(=O)[C@@H]1N2C(=O)[C@@H](NC(=O)[C@H](N)c3ccccc3)[C@H]2SC1(C)C
A: F

Q: Test call for this compound, please: O=[N+]([O-])c1cccc2c([N+](=O)[O-])cccc12
A: T

Q: Test call for this compound, please: COc1ccc(OC)cc1
A: F

Q: Test call for this compound, please: NC(=O)c1cnccn1
A: F

Q: Test call for this compound, please: CCCCC(CC)COC(=O)c1ccccc1C(=O)OCC(CC)CCCC (stereo not given)
A: F

Q: Test call for this compound, please: CC(C)(c1ccccc1)c1ccc(O)cc1
A: F

Q: Test call for this compound, please: Nc1ccc([N+](=O)[O-])c(N)c1
A: F

Q: Test call for this compound, please: FC(F)(F)c1ccccc1Cl
A: F

Q: Test call for this compound, please: CC(=O)/C=C/C1=C(C)CCCC1(C)C
A: F

Q: Test call for this compound, please: [Na+]
A: F

* * *

# Tested on: CCRIS mutagenicity, Ames/micronucleus/aberration tests
# ASSAY_DETAILS: CCRIS mutagenicity studies
# CONDITION_SUMMARY: Test System: AMES SALMONELLA TYPHIMURIUM; Strain/Indicator: TA100; Metabolic Activation: RAT, LIVER, S-9, PHENOBARBITAL AND 5,6-BENZOFLAVONE; Method: PREINCUBATION
Activity calls are given as the source filed them. The rule behind the calls is not given here.
ATTRIBUTE_MEASURED: mutagenic call

See these solved cases before continuing.
>>> result("Nc1cccc2ncc(F)cc12")
"active; positive"
>>> result("Cc1cc2c(cc1N=O)OCO2")
"active; positive"
>>> result("Nc1cc([N+](=O)[O-])ccc1CO")
"active; positive"
>>> result("Cc1oc(=O)oc1COC(=O)[C@@H]1N2C(=O)[C@@H](NC(=O)[C@H](N)c3ccccc3)[C@H]2SC1(C)C")
"inactive; negative"
>>> result("O=c1c2cc(O)ccc2oc2cc(O)cc(O)c12")
"active; positive"
>>> result("Cc1ccnc2ccccc12")
"active; positive"
>>> result("O=C1C=C(S(=O)(=O)O)c2ccccc2C1=O")
"inactive; negative"

Moving on to another molecule below.
Q: // fetch mutagenic call; item: CC(=O)Nc1cccc2cc(F)cnc12 ; system: CCRIS mutagenicity, Ames/micronucleus/aberration tests
A: active; positive

* * *

# System: CCRIS mutagenicity, Ames/micronucleus/aberration tests
# ASSAY_DETAILS: CCRIS mutagenicity studies
# CONDITION_SUMMARY: Test System: AMES SALMONELLA TYPHIMURIUM; Strain/Indicator: TA98; Metabolic Activation: RAT, LIVER, S-9, KANECHLOR 500; Method: PREINCUBATION
# Text: The CCRIS database contains chemical records with carcinogenicity, mutagenicity, tumor promotion, and tumor inhibition test results. It was developed by the National Cancer Institute (NCI). Data are derived from studies cited in primary journals, current awareness tools, NCI reports, and other sources. Test results have been reviewed by experts in carcinogenesis and mutagenesis. CCRIS provides historical information from the years 1985 - 2011. It is no longer updated. […]
Calls of active or inactive are those of the source. No rule for the calls is given here.
Hi there, use one of these labels in your reply, thanks! active, inactive

Below, 4 compounds whose answers are already recorded.
>>> classification("CCOP(=S)(OCC)Oc1ccc([N+](=O)[O-])cc1")
"inactive"
>>> classification("Cc1ccc([N+](=O)[O-])c(C)c1[N+](=O)[O-]")
"inactive"
>>> classification("O=[N+]([O-])c1ccccc1CCl")
"active"
>>> classification("Cc1ccc(C)c([N+](=O)[O-])c1")
"inactive"

Q: Test call for this compound, please: O=[N+]([O-])c1cccc(Br)c1
A: inactive

Q: Test call for this compound, please: Cc1ccc([N+](=O)[O-])c(C)c1
A: inactive

Q: Test call for this compound, please: Nc1c(Cl)cc([N+](=O)[O-])cc1[N+](=O)[O-]
A: active

Q: Test call for this compound, please: CC(C)[N+](=O)[O-]
A: active

Q: Test call for this compound, please: O=[N+]([O-])c1ccc(Cl)c(Cl)c1
A: inactive

Q: Test call for this compound, please: Cc1cccc([N+](=O)[O-])c1C
A: inactive

Q: Test call for this compound, please: CCC[N+](=O)[O-]
A: inactive

* * *

# Tested on: CCRIS mutagenicity, Ames/micronucleus/aberration tests
# ASSAY_DETAILS: CCRIS mutagenicity studies
# CONDITION_SUMMARY: Test System: AMES SALMONELLA TYPHIMURIUM; Strain/Indicator: YG1024; Metabolic Activation: NONE; Method: STANDARD PLATE
Active and inactive are the calls of the source. How the calls were made is not given here.
Hi there, use one of these labels in your reply, thanks! active, inactive

>>> classification("CC(=O)Nc1ccc2ccc3c(O)ccc4ccc1c2c43")
"inactive"
>>> classification("CCN(CC)c1cc(NC(C)=O)c(N=Nc2c(Br)cc([N+](=O)[O-])cc2[N+](=O)[O-])cc1OC")
"active"
>>> classification("O=C(O)c1cc2c(c3c1c([N+](=O)[O-])cc1ccccc13)OCO2")
"active"

Q: Test call for this compound, please: CC(=O)Nc1cc(O)c2ccc3cccc4ccc1c2c34
A: active

* * *

# Tested on: CCRIS mutagenicity, Ames/micronucleus/aberration tests
# ASSAY_DETAILS: CCRIS mutagenicity studies
# CONDITION_SUMMARY: Test System: AMES SALMONELLA TYPHIMURIUM; Strain/Indicator: TA100; Metabolic Activation: RAT, LIVER, S-9, AROCLOR 1254; Method: STANDARD PLATE
Calls of active or inactive are those of the source. No rule for the calls is given here.
Hi there, use one of these labels in your reply, thanks! T for active, F for inactive

>>> classification("c1cc2cccc3c4cccc5cccc(c(c1)c23)c54")
"T"

Q: Test call for this compound, please: CCCCOc1cc(N=Nc2ccc(N(CC)CC)cc2)ccc1N=Nc1c(S(=O)(=O)O)cc2ccc(N)cc2c1O
A: F

Q: Test call for this compound, please: O=[N+]([O-])c1ccccc1C(F)(F)F
A: F

Q: Test call for this compound, please: CC1=Nc2ccccc2C1(C)C
A: F

Q: Test call for this compound, please: COc1cc2c(c3oc(=O)c4c(c13)CC[C@@H]4O)[C@@H]1C=CO[C@@H]1O2
A: T

Q: Test call for this compound, please: Br/C=C/Br
A: T

Q: Test call for this compound, please: NNc1nnc(NN)c2ccccc12
A: F

* * *

# Tested on: CCRIS mutagenicity, Ames/micronucleus/aberration tests
# ASSAY_DETAILS: CCRIS mutagenicity studies
# CONDITION_SUMMARY: Test System: AMES SALMONELLA TYPHIMURIUM; Strain/Indicator: TA102; Metabolic Activation: S-9; Method: PREINCUBATION
Active and inactive are the calls of the source. The rule behind the calls is not given here.
Hi there, use one of these labels in your reply, thanks! YES for active, NO for inactive

Below, 2 compounds whose answers are already recorded.
>>> classification("O=[N+]([O-])O")
"NO"
>>> classification("O=C(O)CC(O)(CC(=O)O)C(=O)O")
"NO"

Q: Test call for this compound, please: CC1=C(/C=C/C(C)=C/C=C/C(C)=C/C=C/C=C(C)/C=C/C=C(C)/C=C/C2=C(C)CCCC2(C)C)C(C)(C)CCC1
A: NO

Q: Test call for this compound, please: CCCOC(=O)c1cc(O)c(O)c(O)c1
A: YES

* * *

# Test system: CCRIS mutagenicity, Ames/micronucleus/aberration tests
# ASSAY_DETAILS: CCRIS mutagenicity studies
# CONDITION_SUMMARY: Test System: AMES SALMONELLA TYPHIMURIUM; Strain/Indicator: TA1537; Metabolic Activation: NONE; Method: STANDARD PLATE
Activity calls are given as the source filed them. How the calls were made is not given here.
Hi there, use one of these labels in your reply, thanks! TRUE (active), FALSE (inactive)

Q: Test call for this compound, please: C=C(C)C(=O)OCC(C)(C)COC(=O)C(=C)C
A: FALSE

Q: Test call for this compound, please: CC(C)N=C=NC(C)C
A: FALSE

Q: Test call for this compound, please: CO/N=C(\C(=O)N[C@@H]1C(=O)N2C(C(=O)[O-])=C(C[n+]3ccn4ncccc43)CS[C@H]12)c1nsc(N)n1
A: FALSE

Q: Test call for this compound, please: Cc1cccc(NS(=O)(=O)c2cccc3cccnc23)c1
A: FALSE

Q: Test call for this compound, please: CC1(C)C(C=C(Cl)Cl)C1C(=O)OC(C#N)c1cccc(Oc2ccccc2)c1 (centres undefined)
A: FALSE

Q: Test call for this compound, please: CCCCOCCOCCOCc1cc2c(cc1CCC)OCO2
A: FALSE

Q: Test call for this compound, please: O=Cc1cccc2cccnc12
A: FALSE
